Assay: Microsomal stability assay, rat liver microsomes
Details: female, Sprague-Dawley, rat, rat liver microsomes, pH 7.4, Microsomal stability assays: Half-life
measured_metric: half-life at 0.08 µM (min)

> print(dat)
                                   compound  unit.annotation  measured.value
1  O=[N+]([O-])c1ccc(CCCNC(CF)Cc2ccc(F)cc2)cc1 (stereo not shown) [Compound 124]              min              24

###

Assay: Microsomal stability assay, rat liver microsomes
Details: female, Sprague-Dawley, rat, liver microsomes, pH 7.4, Microsomal stability assays: Half-life
measured_metric: half-life at 0.08 µM (min)

> print(dat)
                                    molecule  readout.qualifier  measured.value
 1  CC(Cc1ccc(F)cc1)NCCCc1c[nH]c2ccccc12 (stereo not shown) [Compound 91]                  <               6
 2  CC(Cc1ccc(N)cc1)NCCCc1ccccc1 (stereo not shown) [Compound 106]                  =             156
 3  CC(Cc1ccc(F)cc1)NCCCc1ccc(-c2ccnn2C)cc1 (stereo not shown) [Compound 167]                  =              24
 4  CC(=O)Nc1ccc(CCCNC(C)Cc2ccc(F)cc2)cc1 (stereo not shown) [Compound 66]                  =              90
 5  CC(Cc1ccc(F)cc1)NCCCc1ccc2[nH]ccc2c1 (stereo not shown) [Compound 55]                  <               6
 6  CC(Cc1ccc(-c2cncnc2)cc1)NCCCc1ccc(F)cc1 (stereo not shown) [Compound 196]                  =             192
 7  CC(C)C(Cc1ccc(F)cc1)NCCCc1ccc(Br)cc1 (stereo not shown) [Compound 141]                  <               6
 8  CC(Cc1ccc(F)cc1)NCCCc1ccnc2ccccc12 (stereo not shown) [Compound 163]                  <               6
 9  CC(Cc1ccccc1)NCCCc1ccc(C(F)(F)F)cc1 (stereo not shown) [Compound 194]                  =              18
10  COc1ccc(CCCNC(C)Cc2ccncc2)cc1 (stereo not shown) [Compound 173]                  =              24

###

Assay: Microsomal stability assay, rat liver microsomes
Entries annotated with measured Microsomal stability assays: Clearance
measured_metric: Microsomal stability assays: Clearance (mL/min/kg)

> print(dat)
                                   compound                         measured.metric  measured.value
1  CC(Cc1ccccc1)NCCCc1ccc(I)cc1 (stereo not drawn) [Compound 212]  Microsomal stability assays: Clearance             439
2  CC(Cc1ccc(NC=O)cc1)NCCCc1ccc(F)cc1 (stereo not drawn) [Compound 90]  Microsomal stability assays: Clearance            24.9
3  CC(Cc1ccccc1)NCCCc1ccc(S)cc1 (stereo not drawn) [Compound 217]  Microsomal stability assays: Clearance             170
4  CC(Cc1ccccc1)NCCCc1ccc(I)cc1 (stereo not drawn) [Compound 215]  Microsomal stability assays: Clearance             148
5  CC(Cc1ccc(N)cc1)NCCCc1ccc(F)cc1 (stereo not drawn) [Compound 111]  Microsomal stability assays: Clearance            19.5
6  CC(Cc1ccc([N+](=O)[O-])cc1)NCCCc1ccc(F)cc1 (stereo not drawn) [Compound 119]  Microsomal stability assays: Clearance             112

###

Test: Microsomal stability assay, human liver microsomes
Details: both, human, pooled liver microsomes, pH 7.4, Microsomal stability assays: Half-life
Each entry gets Not satisfied if its half-life at 0.08 µM stays under 0.6 h, and Satisfied if its half-life at 0.08 µM is 0.6 h or above.

> print(dat)
                                   molecule    class.label
1  CC(Cc1ccccc1)NCCCc1ccc(-c2cccnc2)cc1 (stereo not shown)  Not satisfied
2  OCC(Cc1ccc(F)cc1)NCCCc1ccc(Br)cc1 (stereo not shown)      Satisfied
3  CC(Cc1ccc(-c2cncnc2)cc1)NCCCc1ccc(Cl)cc1 (stereo not shown)  Not satisfied
4  CC(Cc1ccc(F)cc1)NCCCc1ccc(Cl)cc1 (stereo not shown)      Satisfied
5  CC(Cc1ccc(F)cc1)NCCCc1ccc(I)cc1 (stereo not shown)      Satisfied
6  CC(C)C(Cc1ccc(F)cc1)NCCCc1ccc(Br)cc1 (stereo not shown)      Satisfied
7  CC(Cc1ccc([N+](=O)[O-])cc1)NCCCc1ccccc1 (stereo not shown)      Satisfied
8  CC(Cc1ccccc1)NCCCc1ccc(Br)cc1 (stereo not shown)      Satisfied
9  CC(Cc1ccc(Br)cc1)NCCCc1ccc(I)cc1 (stereo not shown)      Satisfied

###

Molecular target: VMAT2 (Rattus norvegicus (Rat))
Assay: [3H]Dopamine ([3H]DA) uptake assay, vesicular preparation
Type: biochemical
Conditions: [3H]DA uptake, rat; read-out: VMAT2 (rat) Inhibition: Mean Ki ± Standard Deviation
measured_metric: Ki (nM)

> print(dat)
                                   compound  measured.metric  unit.annotation  measured.value
1  CC(Cc1ccc([N+](=O)[O-])cc1)NCCCc1ccc(F)cc1 (centres unmarked) [Compound 117]               Ki               nM            7.08
2  CC(Cc1ccc([N+](=O)[O-])cc1)NCCCc1ccc(F)cc1 (centres unmarked) [Compound 119]               Ki               nM            9.85
3  CC(Cc1ccc(C(F)(F)F)cc1)NCCCc1ccc(N)cc1 (centres unmarked) [Compound 54]               Ki               nM            61.8
4  CC(Cc1ccc(C(F)(F)F)cc1)NCCCc1ccncc1 (centres unmarked) [Compound 165]               Ki               nM            53.2
5  CC(Cc1ccc(F)cc1)NCCCc1ccc(-c2ccnn2C)cc1 (centres unmarked) [Compound 166]               Ki               nM            46.5

###

Target: UniProt:Q01827
Experiment: [3H]Dopamine ([3H]DA) uptake assay, vesicular preparation
Format: biochemical
Conditions: [3H]DA uptake, rat; read-out: VMAT2 (rat) Inhibition: Mean Ki ± Standard Deviation
pKi: −log10 of the molar value.
measured_metric: pKi

> print(dat)
                                    compound  measured.value
 1  CCOC(=O)c1ccc(CCCNC(C)Cc2ccc(F)cc2)cc1 (stereo not shown)            7.37
 2  CC(Cc1ccccc1)N(CCCc1ccc(O)cc1)CCCc1ccc(O)cc1 (stereo not shown)            8.30
 3  COc1ccc(CCC(C)NC(C)Cc2ccccc2)cc1 (stereo not shown)            6.82
 4  CC(Cc1ccccc1)NCCCc1ccc(-c2cncnc2)cc1 (stereo not shown)            6.92
 5  CC(Cc1ccc(NC=O)cc1)N(C=O)CCCc1ccc(F)cc1 (stereo not shown)            8.05
 6  COc1ccc(CCCNC(C)Cc2ccncc2)cc1 (stereo not shown)            6.73
 7  CC(Cc1ccccc1)NCCCc1ccncc1 (stereo not shown)            7.31
 8  OCC(Cc1ccc(F)cc1)NCCCc1ccc(F)cc1 (stereo not shown)            7.52
 9  O=CNc1ccc(CC(CF)NCCCc2ccc(F)cc2)cc1 (stereo not shown)            7.79
10  CC(Cc1ccc(F)cc1)NCCCc1ccccc1 (stereo not shown)            7.71

###

Assay: Microsomal stability assay, human liver microsomes
Conditions: both, human, pooled liver microsomes, pH 7.4, Microsomal stability assays: Half-life
measured_metric: half-life at 0.08 µM

> print(dat)
                                    molecule  measured.value
 1  CC(Cc1ccc(N)cc1)NCCCc1ccc(F)cc1 (stereo not shown)          48 min
 2  CC(Cc1ccc(F)cc1)NCCCc1ccc(N)cc1 (stereo not shown)          96 min
 3  CC(Cc1ccc(C(F)(F)F)cc1)NCCCc1ccncc1 (stereo not shown)       > 240 min
 4  CC(Cc1ccc([N+](=O)[O-])cc1)NCCCc1ccncc1 (stereo not shown)         198 min
 5  Fc1ccc(CCCNC(Cc2ccc(F)cc2)C(F)F)cc1 (stereo not shown)          48 min
 6  CC(Cc1ccc(Br)cc1)NCCCc1ccncc1 (stereo not shown)       > 240 min
 7  CC(Cc1ccc(F)cc1)NCCCc1ccccc1 (stereo not shown)         108 min
 8  CC(Cc1ccc(F)cc1)NCCCc1ccc([N+](=O)[O-])cc1 (stereo not shown)       > 240 min
 9  CC(=O)Nc1ccc(CCCNC(C)Cc2ccc(F)cc2)cc1 (stereo not shown)       > 240 min
10  Nc1ccc(CCCNC(CF)Cc2ccc(F)cc2)cc1 (stereo not shown)         132 min
